tested on: OCI-AML2; assay: cell viability relative to vehicle control; higher = less cytotoxic; settings: 10 µM; SRSF2 genotype: wt/wt;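 note: after 48 h exposure read by CellTiter-Glo luminescence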
Doc: threshold 90% (exclusive). Items with cell viability beneath it return class 1; others return class 0.

Known results for molecules:
CCOC(=O)c1cc2ccccc2oc1=O [Ethyl Coumarin-3-carboxylate]: class 0
Cc1c[nH]c2nc(Nc3ccc(N4CCN(C)CC4)c(F)c3)nc(-c3cccc(CC#N)c3)c12: class 1
COc1cc(O)c(C(=O)Nc2nc(C(=O)NCCN(C(C)C)C(C)C)cs2)cc1OC [Acotiamide]: class 0

Now turn to the next molecule.
Q: Input CC(C)C[C@H](NC(=O)[C@H](Cc1ccccc1)NC(=O)c1cnccn1)B(O)O ; condition: cell viability strictly below 90%. Does it hold?
Ans: class 1
